- experimentDescription: Pharmacokinetic assay in male SD rats (iv and oral)
- Assay type: in vivo
- conditionDetails: rat, plasma, iv, 1 mg/kg
valueKind: Cmax (ng/mL)

Cn1c(=O)c(C(=O)NCC(=O)O)c(O)c2ccc(Oc3cc(Cl)ccc3F)cc21
10100
Cn1c(=O)c(C(=O)NCC(=O)O)c(O)c2ccc(Oc3ccc(Cl)cc3)cc21
8480
Cn1c(=O)c(C(=O)NCC(=O)O)c(O)c2ccc(Oc3ccccc3)cc21
8910
Cn1c(=O)c(C(=O)NCC(=O)O)c(O)c2ccc(Oc3cc(F)ccc3F)cc21
6080
O=C(O)CNC(=O)c1c(O)c2ccc(Oc3ccccc3)cc2n(CC2CC2)c1=O
7190

a: Cn1c(=O)c(C(=O)NCC(=O)O)c(O)c2ccc(Oc3ccc(F)cc3)cc21
b: Cn1c(=O)c(C(=O)NCC(=O)O)c(O)c2ccc(Oc3ccc(F)cc3Cl)cc21
Request: Record comparison, field Cmax: mark the lower of a and b . Provide the label of your selected option as the answer.
Response: b
(b: 4170 ng/mL, a: 6400 ng/mL)

* * *

- experimentDescription: Pharmacokinetic assay in male SD rats (iv and oral)
- Format: in vivo
- conditionDetails: rat, plasma, po, 5 mg/kg
valueKind: Tmax (min)

Answered cases to consult:
Cn1c(=O)c(C(=O)NCC(=O)O)c(O)c2ccc(Oc3cc(Cl)ccc3F)cc21 [Example 22]
50
Cn1c(=O)c(C(=O)NCC(=O)O)c(O)c2ccc(Oc3ccccc3)cc21 [Example 1]
40
Cn1c(=O)c(C(=O)NCC(=O)O)c(O)c2ccc(Oc3cc(F)ccc3F)cc21 [Example 19]
30
Cn1c(=O)c(C(=O)NCC(=O)O)c(O)c2ccc(Oc3ccc(F)cc3Cl)cc21 [Example 28]
55
O=C(O)CNC(=O)c1c(O)c2ccc(Oc3ccccc3)cc2n(CC2CC2)c1=O [Example 2]
130

1: Cn1c(=O)c(C(=O)NCC(=O)O)c(O)c2ccc(Oc3ccc(Cl)cc3)cc21 [Example 13]
2: Cn1c(=O)c(C(=O)NCC(=O)O)c(O)c2ccc(Oc3ccc(F)cc3)cc21 [Example 47]
Request: Which numeric Tmax is bigger, that of 1 or that of 2 ? Provide the label of your selected option as the answer.
Response: 1

* * *

- experimentDescription: Pharmacokinetic assay in male SD rats (iv and oral)
- Type: in vivo
- conditionDetails: rat, plasma, po, 5 mg/kg
valueKind: AUC(0-t) (ng·h/mL)

Answered cases to consult:
Cn1c(=O)c(C(=O)NCC(=O)O)c(O)c2ccc(Oc3ccc(F)cc3)cc21
46200
Cn1c(=O)c(C(=O)NCC(=O)O)c(O)c2ccc(Oc3ccc(Cl)cc3)cc21
57000
Cn1c(=O)c(C(=O)NCC(=O)O)c(O)c2ccc(Oc3ccccc3)cc21
38400
Cn1c(=O)c(C(=O)NCC(=O)O)c(O)c2ccc(Oc3ccc(F)cc3Cl)cc21
33300
O=C(O)CNC(=O)c1c(O)c2ccc(Oc3ccccc3)cc2n(CC2CC2)c1=O
101000

1: Cn1c(=O)c(C(=O)NCC(=O)O)c(O)c2ccc(Oc3cc(Cl)ccc3F)cc21
2: Cn1c(=O)c(C(=O)NCC(=O)O)c(O)c2ccc(Oc3cc(F)ccc3F)cc21
Request: Which numeric AUC(0-t) is bigger, that of 1 or that of 2 ? Provide the label of your selected option as the answer.
Response: 1
(1: 58700 ng·h/mL, 2: 41000 ng·h/mL)

* * *

- experimentDescription: Pharmacokinetic assay in male SD rats (iv and oral)
- Assay type: in vivo
- conditionDetails: rat, plasma, iv, 1 mg/kg
valueKind: clearance (mL/min/kg)

Answered cases to consult:
Cn1c(=O)c(C(=O)NCC(=O)O)c(O)c2ccc(Oc3cc(Cl)ccc3F)cc21 [Example 22]
1.56
Cn1c(=O)c(C(=O)NCC(=O)O)c(O)c2ccc(Oc3ccc(F)cc3)cc21 [Example 47]
1.66
Cn1c(=O)c(C(=O)NCC(=O)O)c(O)c2ccc(Oc3cc(F)ccc3F)cc21 [Example 19]
2.06

A: Cn1c(=O)c(C(=O)NCC(=O)O)c(O)c2ccc(Oc3ccccc3)cc21 [Example 1]
B: Cn1c(=O)c(C(=O)NCC(=O)O)c(O)c2ccc(Oc3ccc(F)cc3Cl)cc21 [Example 28]
Request: Record comparison, field clearance: mark the lower of A and B . Provide the label of your selected option as the answer.
Response: A

* * *

- experimentDescription: Pharmacokinetic assay in male SD rats (iv and oral)
- Type: in vivo
- conditionDetails: rat, plasma, iv, 1 mg/kg
valueKind: half-life (h)

Answered cases to consult:
Cn1c(=O)c(C(=O)NCC(=O)O)c(O)c2ccc(Oc3ccc(F)cc3Cl)cc21
0.99
Cn1c(=O)c(C(=O)NCC(=O)O)c(O)c2ccc(Oc3cc(F)ccc3F)cc21
1.09
Cn1c(=O)c(C(=O)NCC(=O)O)c(O)c2ccc(Oc3ccc(F)cc3)cc21
1.06
O=C(O)CNC(=O)c1c(O)c2ccc(Oc3ccccc3)cc2n(CC2CC2)c1=O
3.74
Cn1c(=O)c(C(=O)NCC(=O)O)c(O)c2ccc(Oc3cc(Cl)ccc3F)cc21
0.959

I: Cn1c(=O)c(C(=O)NCC(=O)O)c(O)c2ccc(Oc3ccc(Cl)cc3)cc21
II: Cn1c(=O)c(C(=O)NCC(=O)O)c(O)c2ccc(Oc3ccccc3)cc21
Request: Which numeric half-life is bigger, that of I or that of II ? Provide the label of your selected option as the answer.
Response: II

* * *

- experimentDescription: Pharmacokinetic assay in male SD rats (iv and oral)
- Format: in vivo
- conditionDetails: po 5 mg/kg vs iv 1 mg/kg
valueKind: F (%)

O=C(O)CNC(=O)c1c(O)c2ccc(Oc3ccccc3)cc2n(CC2CC2)c1=O [Example 2]
100.4
Cn1c(=O)c(C(=O)NCC(=O)O)c(O)c2ccc(Oc3cc(Cl)ccc3F)cc21 [Example 22]
108.6
Cn1c(=O)c(C(=O)NCC(=O)O)c(O)c2ccc(Oc3ccccc3)cc21 [Example 1]
81.5
Cn1c(=O)c(C(=O)NCC(=O)O)c(O)c2ccc(Oc3ccc(F)cc3)cc21 [Example 47]
90.7
Cn1c(=O)c(C(=O)NCC(=O)O)c(O)c2ccc(Oc3ccc(F)cc3Cl)cc21 [Example 28]
107.8
Cn1c(=O)c(C(=O)NCC(=O)O)c(O)c2ccc(Oc3cc(F)ccc3F)cc21 [Example 19]
98.7
Cn1c(=O)c(C(=O)NCC(=O)O)c(O)c2ccc(Oc3ccc(Cl)cc3)cc21 [Example 13]
94.6

* * *

- experimentDescription: Pharmacokinetic assay in male SD rats (iv and oral)
- Type: in vivo
- conditionDetails: rat, plasma, iv, 1 mg/kg, read-out: Vss
valueKind: Vd (L/kg)

Answered cases to consult:
Cn1c(=O)c(C(=O)NCC(=O)O)c(O)c2ccc(Oc3cc(Cl)ccc3F)cc21 [Example 22]
0.146
Cn1c(=O)c(C(=O)NCC(=O)O)c(O)c2ccc(Oc3ccc(F)cc3Cl)cc21 [Example 28]
0.217
Cn1c(=O)c(C(=O)NCC(=O)O)c(O)c2ccc(Oc3ccc(F)cc3)cc21 [Example 47]
0.144
O=C(O)CNC(=O)c1c(O)c2ccc(Oc3ccccc3)cc2n(CC2CC2)c1=O [Example 2]
0.159
Cn1c(=O)c(C(=O)NCC(=O)O)c(O)c2ccc(Oc3cc(F)ccc3F)cc21 [Example 19]
0.164

1: Cn1c(=O)c(C(=O)NCC(=O)O)c(O)c2ccc(Oc3ccccc3)cc21 [Example 1]
2: Cn1c(=O)c(C(=O)NCC(=O)O)c(O)c2ccc(Oc3ccc(Cl)cc3)cc21 [Example 13]
Request: Record comparison, field Vd: mark the lower of 1 and 2 . Provide the label of your selected option as the answer.
Response: 2
(2: 0.107 L/kg, 1: 0.234 L/kg)

* * *

- experimentDescription: Pharmacokinetic assay in male SD rats (iv and oral)
- Assay type: in vivo
- conditionDetails: rat, plasma, po, 5 mg/kg
- Description: Preparation of test compound solutions: the test compound solution was prepared for oral and intravenous administration by using 5% DMSO, 5% Solutol HS 15 and 90% normal saline. Male SD rats weighing 190-250 g were randomly divided into two groups, and each group had three rats; one group was administered with test compound at a dose of 1.0 mg/kg by intravenous injection, the other group was administered with test compound at a dose of 5.0 mg/kg by oral. […]
valueKind: Cmax (µg/mL)

Answered cases to consult:
O=C(O)CNC(=O)c1c(O)c2ccc(Oc3ccccc3)cc2n(CC2CC2)c1=O
13.2
Cn1c(=O)c(C(=O)NCC(=O)O)c(O)c2ccc(Oc3ccc(Cl)cc3)cc21
12.3
Cn1c(=O)c(C(=O)NCC(=O)O)c(O)c2ccc(Oc3cc(F)ccc3F)cc21
9.56

A: Cn1c(=O)c(C(=O)NCC(=O)O)c(O)c2ccc(Oc3ccc(F)cc3)cc21
B: Cn1c(=O)c(C(=O)NCC(=O)O)c(O)c2ccc(Oc3ccccc3)cc21
Request: Which numeric Cmax is bigger, that of A or that of B ? Provide the label of your selected option as the answer.
Response: B

// data source = patent US10065928B2
